Assay: Solubility of active ingredients in water
Type: physicochemical
Settings: 20 °C, riboflavin form B, in water
propertyName: Solubility (µg/mL)
Kindly answer with a numeric value in µg/mL, unit omitted.

Fill in reported Solubility for this entry: Cc1cc2nc3c(=O)[nH]c(=O)nc-3n(C[C@H](O)[C@H](O)[C@H](O)CO)c2cc1C [Riboflavin (form B), Riboflavin]
80

* * *

Experiment: Solubility of active ingredients in water
Assay type: physicochemical
Settings: 20 °C, deduced experimentally
propertyName: Solubility

Give me measured Solubility, please, for this molecule: Cc1cc2nc3c(=O)[nH]c(=O)nc-3n(C[C@H](O)[C@H](O)[C@H](O)CO)c2cc1C
~80 µg/mL
